Square brackets hold non-standard residues; d marks the D form. Peptide text beside a SMILES is read from it. d1Nal = N[C@H](Cc1cccc2ccccc12)C(=O)O
Here's a batch of compounds along with measured Ki for UniProt P30872.
Sequence (P30872 whole entry): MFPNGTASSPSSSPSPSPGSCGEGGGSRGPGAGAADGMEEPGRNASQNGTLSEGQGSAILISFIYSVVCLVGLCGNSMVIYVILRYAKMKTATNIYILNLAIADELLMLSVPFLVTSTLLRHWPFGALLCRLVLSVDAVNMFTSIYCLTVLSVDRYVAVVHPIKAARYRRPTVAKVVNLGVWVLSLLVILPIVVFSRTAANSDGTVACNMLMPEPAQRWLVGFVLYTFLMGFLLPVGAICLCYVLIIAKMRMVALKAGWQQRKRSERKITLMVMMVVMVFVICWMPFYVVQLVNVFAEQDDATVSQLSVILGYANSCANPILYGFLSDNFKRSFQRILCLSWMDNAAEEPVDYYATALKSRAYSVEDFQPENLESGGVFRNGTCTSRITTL
Value expressed in nM; do not type the unit.

Solved cases (2 shown):
C[C@@H](O)[C@H](NC(=O)[C@H](Cc1ccccc1)NC(=O)[C@@H](NC(=O)[C@H](CCCCN)NC(=O)[C@@H](Cc1c[nH]c2ccccc12)NC(=O)[C@H](Cc1ccccc1)NC(=O)[C@H](Cc1ccccc1)NC(=O)[C@H](N)Cc1ccccc1)[C@@H](C)O)C(N)=O [CAS_133073-82-2] (H-[dF]FF[dW]KTFT-NH2)	31.3
CC(C)[C@H](NC(=O)[C@H](CCCCN)NC(=O)[C@@H](Cc1c[nH]c2ccccc12)NC(=O)[C@H](Cc1ccc(O)cc1)NC(=O)[C@H](Cc1ccccc1)NC(=O)[C@H](N)Cc1ccccc1)C(=O)N[C@@H](Cc1ccccc1)C(=O)N[C@H](Cc1cccc2ccccc12)C(N)=O [BIM 23056] (H-[dF]FY[dW]KVF[d1Nal]-NH2)	142

We next turn to a different compound, shown below.
Req: Report its Ki with UniProt P30872 as the test system: C[C@@H](O)[C@H](NC(=O)[C@@H]1CSSC[C@H](NC(=O)[C@H](N)Cc2ccc3ccccc3c2)C(=O)N[C@@H](Cc2ccc(O)cc2)C(=O)N[C@H](Cc2c[nH]c3ccccc23)C(=O)N[C@@H](CCCCN)C(=O)N[C@@H]([C@@H](C)O)C(=O)N1)C(N)=O
Resp: 41

---

Molecular target: Somatostatin receptor type 3 (Homo sapiens)
Sequence (P32745 whole entry): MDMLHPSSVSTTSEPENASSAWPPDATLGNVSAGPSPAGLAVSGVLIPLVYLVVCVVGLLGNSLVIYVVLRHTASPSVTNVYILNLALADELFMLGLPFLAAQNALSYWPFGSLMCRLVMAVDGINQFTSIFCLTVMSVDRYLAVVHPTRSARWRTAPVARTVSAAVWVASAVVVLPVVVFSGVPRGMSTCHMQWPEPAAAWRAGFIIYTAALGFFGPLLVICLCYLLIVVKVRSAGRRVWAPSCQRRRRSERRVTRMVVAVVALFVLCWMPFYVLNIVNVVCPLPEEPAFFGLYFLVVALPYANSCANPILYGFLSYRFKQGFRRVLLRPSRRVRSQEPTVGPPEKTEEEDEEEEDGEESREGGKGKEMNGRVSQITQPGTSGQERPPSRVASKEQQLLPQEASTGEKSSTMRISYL
MEASURED_PROPERTY: Ki (nM)
Value expressed in nM; do not type the unit.

Req: State, in one line, measured Ki of CC(C)[C@@H]1NC(=O)[C@H](CCCCN)NC(=O)[C@@H](Cc2c[nH]c3ccccc23)NC(=O)[C@H](Cc2ccc(O)cc2)NC(=O)[C@@H](C)N(C)C(=O)[C@H](Cc2ccccc2)NC1=O
Resp: 14.6

---

Square brackets hold non-standard residues; d marks the D form. Peptide text beside a SMILES is read from it. Phe(4-Cl) = N[C@@H](Cc1ccc(Cl)cc1)C(=O)O; 2Nal = N[C@@H](Cc1ccc2ccccc2c1)C(=O)O
Here's a batch of compounds along with measured pKi for Somatostatin receptor type 2 (Homo sapiens).
Scale: pKi equals -log10([C]), with [C] in mol/L.

CC(C)[C@H](NC(=O)[C@H](CCCCN)NC(=O)[C@@H](Cc1c[nH]c2ccccc12)NC(=O)[C@H](Cc1ccc(O)cc1)NC(=O)[C@H](C)NC(=O)[C@H](N)Cc1ccccc1)C(=O)N[C@@H](C)C(=O)N[C@@H](Cc1ccc2ccccc2c1)C(N)=O (H-[dF]AY[dW]KVA[2Nal]-NH2)	8.08
CC(C)[C@H](NC(=O)[C@H](CCCCN)NC(=O)[C@@H](Cc1c[nH]c2ccccc12)NC(=O)[C@H](Cc1ccc(O)cc1)NC(=O)[C@H](Cc1ccc(Cl)cc1)NC(=O)[C@H](N)Cc1ccccc1)C(=O)N[C@@H](Cc1ccccc1)C(=O)N[C@H](C(N)=O)[C@@H](C)O [BIM 23057] (H-[dF][Phe(4-Cl)]Y[dW]KVFT-NH2)	6.00

Req: Report its pKi with Somatostatin receptor type 2 (Homo sapiens) as the test system: C[C@H](NC(=O)[C@H](N)Cc1ccccc1)C(=O)N[C@@H](Cc1ccccc1)C(=O)N[C@H](Cc1c[nH]c2ccccc12)C(=O)N[C@@H](CCCCN)C(=O)N[C@H](C(=O)N[C@@H](C)C(=O)N[C@H](C(N)=O)[C@@H](C)O)[C@@H](C)O [BIM 23051] (H-[dF]AF[dW]KTAT-NH2)
Sequence (P30874 whole entry): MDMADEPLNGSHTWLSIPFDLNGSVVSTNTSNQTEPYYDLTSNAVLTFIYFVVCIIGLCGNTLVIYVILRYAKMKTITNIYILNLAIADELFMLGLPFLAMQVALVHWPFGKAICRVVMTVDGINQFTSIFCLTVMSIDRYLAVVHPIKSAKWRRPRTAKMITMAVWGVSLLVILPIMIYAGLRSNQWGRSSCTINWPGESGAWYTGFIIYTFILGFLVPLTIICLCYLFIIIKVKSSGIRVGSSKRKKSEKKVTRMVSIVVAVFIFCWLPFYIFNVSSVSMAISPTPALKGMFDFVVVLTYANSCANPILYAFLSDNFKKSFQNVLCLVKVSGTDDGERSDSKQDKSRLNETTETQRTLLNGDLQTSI
Resp: 6.00
